The following compounds are shown together with reported viability, T/C values.
- System: 945468-187-T-J3-PDC spheroids with HUVEC/MSC, viability;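 also: spheroids exposed to agents for 7 days before viability read; 100% = DMSO vehicle control viability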
- METHOD: Anticancer human tumor 945468-187-T-J3-PDC patient-derived rectal carcinoma cell line growth inhibition [PI3K]
- MEASUREMENT CONDITIONS: second compound 10 µM; first compound 3.16 µM; active compounds read low
# output: bare number, implied unit %

Check out these entries, answers already filled in.
INSERT INTO results (compound, reported_endpoint, observed_measurement) VALUES
  ('CNC(=O)c1ccc(N2C(=S)N(c3ccc(C#N)c(C(F)(F)F)c3)C(=O)C2(C)C)cc1F + CC(Nc1ncnc2nc[nH]c12)c1cc2cccc(Cl)c2c(=O)n1-c1ccccc1', 'viability, T/C', 105),
  ('CC1(C)CCC(Nc2ncc(C(F)(F)F)c(-c3c[nH]c4c(P(C)(C)=O)c(C#N)ccc34)n2)CN1 (stereo not given) + Cc1nc(NC(=O)N2CCCC2C(N)=O)sc1-c1ccnc(C(C)(C)C(F)(F)F)c1', 'viability, T/C', 40.2),
  ('C[C@@H](NC(=O)c1ncnc(N)c1Cl)c1ncc(C(=O)Nc2cc(C(F)(F)F)c(Cl)cn2)s1 + CC(Nc1ncnc2nc[nH]c12)c1cc2cccc(Cl)c2c(=O)n1-c1ccccc1', 'viability, T/C', 98.8),
  ('CC1(C)CCC(Nc2ncc(C(F)(F)F)c(-c3c[nH]c4c(P(C)(C)=O)c(C#N)ccc34)n2)CN1 (stereo not given) + CC(Nc1ncnc2nc[nH]c12)c1cc2cccc(Cl)c2c(=O)n1-c1ccccc1', 'viability, T/C', 81.4);

Shift focus to the following entry.
Form entry - test system: 945468-187-T-J3-PDC spheroids with HUVEC/MSC, viability; read-out: viability, T/C; compound: C#Cc1c(F)ccc2cc(O)cc(-c3ncc4c(N5CC6CCC(C5)N6)nc(OCC56CCCN5CC(F)C6)nc4c3F)c12 (stereo not given) + CC(Nc1ncnc2nc[nH]c12)c1cc2cccc(Cl)c2c(=O)n1-c1ccccc1;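 also: spheroids exposed to agents for 7 days before viability read; 100% = DMSO vehicle control viability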
121

Values compiled from PubChem BioAssay AID1963968.
